Listing of recorded pEC50 by entry.
Biological target: T1, human MSLN full-length protein (NCBI: AAH09272.1) expressed on HEK293T-hMSLN-B8 cells (human, UniProt Q13421 296-598)
T1 construct: Whole encoded precursor
T1 sequence (Q13421 other isoform, or with tags, fused parts or gaps limits assumed): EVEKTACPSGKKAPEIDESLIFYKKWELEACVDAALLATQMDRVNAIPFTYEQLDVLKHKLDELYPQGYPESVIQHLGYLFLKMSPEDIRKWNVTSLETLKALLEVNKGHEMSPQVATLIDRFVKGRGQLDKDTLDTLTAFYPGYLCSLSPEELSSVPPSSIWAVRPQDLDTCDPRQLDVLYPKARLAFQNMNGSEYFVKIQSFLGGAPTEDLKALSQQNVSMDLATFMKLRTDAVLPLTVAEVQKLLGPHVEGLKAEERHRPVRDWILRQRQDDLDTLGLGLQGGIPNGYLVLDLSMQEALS
Test: FACS on HEK293T-hMSLN-B8 cells
pEC50: −log10 of the molar value.

binder	pEC50
S009-F3.45.21 (antibody, human IgG1, kappa, V domains shown, human-murine chimeric antibody, human IgG1/kappa constant regions) VH: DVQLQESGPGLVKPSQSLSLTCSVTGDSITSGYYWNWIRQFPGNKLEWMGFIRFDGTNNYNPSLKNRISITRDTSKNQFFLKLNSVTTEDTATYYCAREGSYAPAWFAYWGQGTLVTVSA VL: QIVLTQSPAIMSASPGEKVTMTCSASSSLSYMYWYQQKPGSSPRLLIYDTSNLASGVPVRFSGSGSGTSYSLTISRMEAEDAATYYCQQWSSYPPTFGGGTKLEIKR	8.85
S009-F3.38.10 (antibody, human IgG1, kappa, V domains shown, human-murine chimeric antibody, human IgG1/kappa constant regions) VH: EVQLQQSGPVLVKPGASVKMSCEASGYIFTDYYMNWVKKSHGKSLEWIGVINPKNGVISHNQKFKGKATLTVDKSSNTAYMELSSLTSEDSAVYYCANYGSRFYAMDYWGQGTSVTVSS VL: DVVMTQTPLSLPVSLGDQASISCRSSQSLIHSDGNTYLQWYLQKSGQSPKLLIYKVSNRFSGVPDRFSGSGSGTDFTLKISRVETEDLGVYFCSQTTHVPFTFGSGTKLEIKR	8.16
S009-F3.80.22 (antibody, human IgG1, kappa, V domains shown, human-murine chimeric antibody, human IgG1/kappa constant regions) VH: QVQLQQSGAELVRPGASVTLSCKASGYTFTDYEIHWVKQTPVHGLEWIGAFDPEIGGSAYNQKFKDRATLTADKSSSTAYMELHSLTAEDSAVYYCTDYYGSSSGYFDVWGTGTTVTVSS VL: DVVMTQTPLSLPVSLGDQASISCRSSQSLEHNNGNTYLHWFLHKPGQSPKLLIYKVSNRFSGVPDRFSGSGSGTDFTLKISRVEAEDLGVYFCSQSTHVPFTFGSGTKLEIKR	7.44
S009-F3.74.20 (antibody, human IgG1, kappa, V domains shown, human-murine chimeric antibody, human IgG1/kappa constant regions) VH: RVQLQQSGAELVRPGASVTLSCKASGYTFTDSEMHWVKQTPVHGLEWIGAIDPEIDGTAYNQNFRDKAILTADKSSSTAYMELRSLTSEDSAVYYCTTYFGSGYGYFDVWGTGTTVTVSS VL: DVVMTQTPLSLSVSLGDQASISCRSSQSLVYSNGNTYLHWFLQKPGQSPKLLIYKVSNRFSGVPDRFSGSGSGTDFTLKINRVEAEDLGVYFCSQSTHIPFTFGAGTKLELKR	8.06
